Origin of the recorded values: patent US10770169B2

system: panel of 55 breast cancer cell lines; assay: Cell growth inhibition assay (Cell Titer Glo, 72 h, 9 doses; GI50, TGI, LC50); format: cell-based, human; conditions: Homo sapiens, SUM52PE, cell line SUM52PE; read-out: GI50 (converted)
result_type: GI50

compound: COc1cc2ncnc(Nc3ccc(F)c(Cl)c3)c2cc1OCCCN1CCOCC1 [Gefitinib]
data_value: 7.94 µM
--
compound: CS(=O)(=O)CCNCc1ccc(-c2ccc3ncnc(Nc4ccc(OCc5cccc(F)c5)c(Cl)c4)c3c2)o1 [Lapatinib]
data_value: 16.6 µM
--
compound: O=C1c2ccccc2-[n+]2ccc3c([nH]c4ccccc43)c21 [Fascaplysin]
data_value: 0.182 µM
--
compound: CN(C)C/C=C/C(=O)Nc1cc2c(Nc3ccc(F)c(Cl)c3)ncnc2cc1O[C@H]1CCOC1 [BIBW 2992]
data_value: 3.39 µM
--
compound: CCNCCCNC/C=C\CNCCCNCC [CGC-11047]
data_value: 3.55 µM
--
compound: C#Cc1cccc(Nc2ncnc3cc(OCCOC)c(OCCOC)cc23)c1 [Erlotinib]
data_value: 31.6 µM
--
compound: Cc1[nH]c2ccccc2c1CCNCc1ccc(/C=C/C(=O)NO)cc1 [LBH589]
data_value: 0.17 µM

* * *

Known GI50 of a selection of compounds
tested on: panel of 55 breast cancer cell lines; assay: Cell growth inhibition assay (Cell Titer Glo, 72 h, 9 doses; GI50, TGI, LC50); assay type: cell-based, human; settings: Homo sapiens, HCC1143, HCC1143 cell line; censored GI50 values; read-out: GI50 (converted)
result_type: GI50

compound: COC1=C2C[C@@H](C)C[C@H](OC)[C@H](O)[C@@H](C)/C=C(\C)[C@H](OC(N)=O)[C@@H](OC)/C=C\C=C(/C)C(=O)NC(=CC1=O)C2=O [Geldanamycin]
data_value: 0.0813 µM
//
compound: COc1cc2ncnc(Nc3ccc(F)c(Cl)c3)c2cc1OCCCN1CCOCC1 [Iressa]
data_value: 11.7 µM
//
compound: CO[C@H]1C[C@@H]2CC[C@@H](C)[C@@](O)(O2)C(=O)C(=O)N2CCCC[C@H]2C(=O)O[C@H]([C@H](C)C[C@@H]2CC[C@@H](OC(=O)C(C)(CO)CO)[C@H](OC)C2)CC(=O)[C@H](C)/C=C(\C)[C@@H](O)[C@@H](OC)C(=O)[C@H](C)C[C@H](C)/C=C/C=C/C=C/1C [Temsirolimus]
data_value: 1.58 µM
//
compound: Cc1cncc2cccc(S(=O)(=O)N3CCCN(C(=O)CN)C[C@@H]3C)c12 [Glycyl-H-1152]
data_value: 15.8 µM
//
compound: CC/C(=C(\c1ccccc1)c1ccc(OCCN(C)C)cc1)c1ccccc1 [Tamoxifen]
data_value: 16.2 µM
//
compound: CNC(=O)c1cc(Oc2ccc(NC(=O)Nc3ccc(Cl)c(C(F)(F)F)c3)cc2)ccn1 [Sorafenib]
data_value: 58.9 µM
//
compound: CC[C@@]1(O)C(=O)OCc2c1cc1n(c2=O)Cc2cc3c(CN(C)C)c(O)ccc3nc2-1 [Topotecan]
data_value: 0.257 µM

* * *

tested on: panel of 55 breast cancer cell lines; experiment: Cell growth inhibition assay (Cell Titer Glo, 72 h, 9 doses; GI50, TGI, LC50); format: cell-based, human; conditions: Homo sapiens, SUM149PT, cell line SUM149PT; read-out: GI50 (converted)

compound: CO[C@H]1C[C@@H]2CC[C@@H](C)[C@@](O)(O2)C(=O)C(=O)N2CCCC[C@H]2C(=O)O[C@H]([C@H](C)C[C@@H]2CC[C@@H](O)[C@H](OC)C2)CC(=O)[C@H](C)/C=C(\C)[C@@H](O)[C@@H](OC)C(=O)[C@H](C)C[C@H](C)/C=C/C=C/C=C/1C
u: nM
GI50: 9330
--
compound: C/C(=C\c1csc(C)n1)[C@@H]1C[C@@H]2O[C@]2(C)CCC[C@H](C)[C@H](O)[C@@H](C)C(=O)C(C)(C)[C@@H](O)CC(=O)N1 [Ixabepilone]
u: nM
GI50: 5.5
--
compound: CN(Cc1cnc2nc(N)nc(N)c2n1)c1ccc(C(=O)N[C@@H](CCC(=O)O)C(=O)O)cc1 [Methotrexate]
u: nM
GI50: 331000
--
compound: C#Cc1cccc(Nc2ncnc3cc(OCCOC)c(OCCOC)cc23)c1
u: nM
GI50: 2000
--
compound: COc1cc([C@@H]2c3cc4c(cc3[C@@H](O[C@@H]3O[C@@H]5CO[C@@H](C)O[C@H]5[C@H](O)[C@H]3O)[C@H]3COC(=O)[C@H]23)OCO4)cc(OC)c1O [Etoposide]
u: nM
GI50: 2630
--
compound: CC(C)C[C@H](NC(=O)[C@H](Cc1ccccc1)NC(=O)c1cnccn1)B(O)O
u: nM
GI50: 7.41
--
compound: NS(=O)(=O)OC[C@@H]1C[C@@H](n2ccc3c(N[C@H]4CCc5ccccc54)ncnc32)C[C@@H]1O
u: nM
GI50: 191
--
compound: CCN(CC)CCCCNc1ncc2cc(-c3cc(OC)cc(OC)c3)c(NC(=O)NC(C)(C)C)nc2n1
u: nM
GI50: 9120

* * *

test system: panel of 55 breast cancer cell lines; test: Cell growth inhibition assay (Cell Titer Glo, 72 h, 9 doses; GI50, TGI, LC50); format: cell-based, human; conditions: Homo sapiens, T47D, cell line T47D; read-out: GI50 (converted)
result_type: log10 of GI50 (log10 of the value in µM)

compound: Cn1c(=O)n(-c2ccc(C(C)(C)C#N)cc2)c2c3cc(-c4cnc5ccccc5c4)ccc3ncc21
data_value: -0.55
--
compound: CCC1=C[C@@H]2CN(C1)Cc1c([nH]c3ccccc13)[C@@](C(=O)OC)(c1cc3c(cc1OC)N(C)[C@H]1[C@@](O)(C(=O)OC)[C@H](OC(C)=O)[C@]4(CC)C=CCN5CC[C@]31[C@@H]54)C2
data_value: 0.67
--
compound: CCNCCCNC/C=C\CNCCCNCC
data_value: 0.97
--
compound: Cn1cnc2c(F)c(Nc3ccc(Br)cc3Cl)c(C(=O)NOCCO)cc21
data_value: 1.70
--
compound: COc1cc([C@@H]2c3cc4c(cc3[C@@H](O[C@@H]3O[C@@H]5CO[C@@H](C)O[C@H]5[C@H](O)[C@H]3O)[C@H]3COC(=O)[C@H]23)OCO4)cc(OC)c1O [Etoposide]
data_value: 0.03
--
compound: COc1cc2ncnc(Nc3ccc(F)c(Cl)c3)c2cc1OCCCN1CCOCC1
data_value: 1.20
--
compound: CO[C@H]1C[C@@H]2CC[C@@H](C)[C@@](O)(O2)C(=O)C(=O)N2CCCC[C@H]2C(=O)O[C@H]([C@H](C)C[C@@H]2CC[C@@H](O)[C@H](OC)C2)CC(=O)[C@H](C)/C=C(\C)[C@@H](O)[C@@H](OC)C(=O)[C@H](C)C[C@H](C)/C=C/C=C/C=C/1C
data_value: -0.31
--
compound: CC(C)C[C@H](NC(=O)[C@H](Cc1ccccc1)NC(=O)c1cnccn1)B(O)O
data_value: -2.08
--
compound: Cc1cncc2cccc(S(=O)(=O)N3CCCN(C(=O)CN)C[C@@H]3C)c12
data_value: 1.18
--
compound: Nc1nc2[nH]cc(CCc3ccc(C(=O)N[C@@H](CCC(=O)O)C(=O)O)cc3)c2c(=O)[nH]1
data_value: 3.47
--
compound: C#Cc1cccc(Nc2ncnc3cc(OCCOC)c(OCCOC)cc23)c1
data_value: 1.70
--
compound: CCN(CC)CCCCNc1ncc2cc(-c3cc(OC)cc(OC)c3)c(NC(=O)NC(C)(C)C)nc2n1
data_value: 1.13
--
compound: Cc1[nH]c2ccccc2c1CCNCc1ccc(/C=C/C(=O)NO)cc1
data_value: -0.82
--
compound: O=C1c2ccccc2-[n+]2ccc3c([nH]c4ccccc43)c21
data_value: -0.34

* * *

Known GI50 of a selection of compounds
test system: panel of 55 breast cancer cell lines; assay: Cell growth inhibition assay (Cell Titer Glo, 72 h, 9 doses; GI50, TGI, LC50); assay type: cell-based, human; details: cell line LY2; value is the negative log10 of mol/L

compound: O=c1[nH]c(=O)n([C@H]2C[C@H](O)[C@@H](CO)O2)cc1F
GI50: 4.41

compound: NC(=O)Nc1sc(-c2ccc(F)cc2)cc1C(N)=O
GI50: 4.54

compound: C=CCNC1=C2C[C@@H](C)C[C@H](OC)[C@H](O)[C@@H](C)/C=C(\C)[C@H](OC(N)=O)[C@@H](OC)/C=C\C=C(/C)C(=O)NC(=CC1=O)C2=O
GI50: 6.97

compound: O=C1NC(=O)/C(=C/c2ccc(-c3ccc(F)cc3O)o2)S1
GI50: 4.51

compound: COc1ccc(C2=N[C@@H](c3ccc(Cl)cc3)[C@@H](c3ccc(Cl)cc3)N2C(=O)N2CCNC(=O)C2)c(OC(C)C)c1
GI50: 5.35

compound: CCNCCCCNCCCCNCCCCNCCCCNCC=CCNCCCCNCCCCNCCCCNCCCCNCC.Cl.Cl.Cl.Cl.Cl.Cl.Cl.Cl.Cl.Cl (stereo in doubt)
GI50: 5.18

compound: CC(/C=C/C(=O)NO)=C\[C@@H](C)C(=O)c1ccc(N(C)C)cc1
GI50: 4.86

compound: CC(C)(C)c1cc(C=C(C#N)C#N)cc(Br)c1O
GI50: 4.48

compound: CC(=O)Nc1cccc(-n2c(=O)n(C3CC3)c(=O)c3c(Nc4ccc(I)cc4F)n(C)c(=O)c(C)c32)c1.C[S+](C)[O-] [GSK1120212B]
GI50: 4.78

compound: N.N.O=C([O-])C1(C(=O)[O-])CCC1.[Pt+2]
GI50: 4.39

compound: O=c1[nH]c2ccccc2n1C1CCN(Cc2ccc(-c3nc4cc5[nH]cnc5cc4nc3-c3ccccc3)cc2)CC1
GI50: 5.77

compound: Cc1cc(C(=O)N2CCN(c3cccc(Cl)c3)CC2)n(-c2ccccc2)n1 [XRP44X]
GI50: 6.08

compound: NS(=O)(=O)c1ccc(Nc2nc(OCC3CCCCC3)c3[nH]cnc3n2)cc1
GI50: 4.32

compound: COc1cc2ncnc(Nc3cccc(Cl)c3)c2cc1OC
GI50: 3.78

compound: O=C1C(Cl)=C(NCCN2CCOCC2)C(=O)c2ncccc21
GI50: 6.27
